Protocol Details: Acid dissociation constant, pKa of the compound in potassium chloride at 20 degC by UV absorption analysis
Format: physicochemical
Observed Property: pKa

{"Molecular String": "CC(C)(F)CN1[C@@H]2CCC[C@@]1(c1c(F)cc(/C=C/C(=O)O)cc1F)c1[nH]c3ccccc3c1C2", "Endpoint Result": 3.8}

---

Protocol Details: Base dissociation constant, pKa of the compound in potassium chloride at 20 degC by UV absorption analysis
Type: physicochemical

{"Molecular String": "CC(C)(F)CN1[C@@H]2CCC[C@@]1(c1c(F)cc(/C=C/C(=O)O)cc1F)c1[nH]c3ccccc3c1C2", "pKa": 5.7}

---

Settings: human, plasma
Description: Fraction unbound in human plasma by equilibrium dialysis method
Listed below: Fu values for each entry.
Observed Property: Fu (%)

{"Molecular String": "CC(C)(F)CN1[C@@H]2CCC[C@@]1(c1c(F)cc(/C=C/C(=O)O)cc1F)c1[nH]c3ccccc3c1C2", "Endpoint Result": 0.45}
{"Molecular String": "C[C@@H]1Cc2c([nH]c3ccccc23)[C@@](C)(c2c(F)cc(/C=C/C(=O)O)cc2F)N1CC(C)(C)F", "Endpoint Result": 0.28}
{"Molecular String": "C[C@@H]1Cc2c([nH]c3ccccc23)[C@@](C)(c2c(F)cc(OCCN3CC(CF)C3)cc2F)N1CC(C)(C)F", "Endpoint Result": 0.05}
{"Molecular String": "CC(C)(F)CN1[C@@H]2C=CC[C@@]1(c1c(F)cc(/C=C/C(=O)O)cc1F)c1[nH]c3ccccc3c1C2", "Endpoint Result": 0.3}
{"Molecular String": "CC(C)(F)CN1[C@@H]2CCC[C@@]1(c1c(F)cc(OCCN3CC(CF)C3)cc1F)c1[nH]c3ccccc3c1C2", "Endpoint Result": 0.17}
{"Molecular String": "C[C@@H]1Cc2c([nH]c3ccccc23)[C@@H](c2c(F)cc(/C=C/C(=O)O)cc2F)N1CC(C)(C)F", "Endpoint Result": 0.26}

---

Protocol Details: Stability of the compound assessed as parent compound remaining in buffer at pH 7.4 measured after 3 days by 1H-NMR analysis
Assay type: physicochemical
Settings: read-out: Stability
Listed below: remaining at 72 h values for each entry.
Observed Property: remaining at 72 h (%)

{"Molecular String": "C[C@@H]1Cc2c([nH]c3ccccc23)[C@@H](c2c(F)cc(/C=C/C(=O)O)cc2F)N1CC(C)(C)F", "Endpoint Result": 92}
{"Molecular String": "CC(C)(F)CN1[C@@H]2CCC[C@@]1(c1c(F)cc(/C=C/C(=O)O)cc1F)c1[nH]c3ccccc3c1C2", "Endpoint Result": 100}

---

Target: Estrogen receptor (Homo sapiens)
Sequence (P03372 whole entry): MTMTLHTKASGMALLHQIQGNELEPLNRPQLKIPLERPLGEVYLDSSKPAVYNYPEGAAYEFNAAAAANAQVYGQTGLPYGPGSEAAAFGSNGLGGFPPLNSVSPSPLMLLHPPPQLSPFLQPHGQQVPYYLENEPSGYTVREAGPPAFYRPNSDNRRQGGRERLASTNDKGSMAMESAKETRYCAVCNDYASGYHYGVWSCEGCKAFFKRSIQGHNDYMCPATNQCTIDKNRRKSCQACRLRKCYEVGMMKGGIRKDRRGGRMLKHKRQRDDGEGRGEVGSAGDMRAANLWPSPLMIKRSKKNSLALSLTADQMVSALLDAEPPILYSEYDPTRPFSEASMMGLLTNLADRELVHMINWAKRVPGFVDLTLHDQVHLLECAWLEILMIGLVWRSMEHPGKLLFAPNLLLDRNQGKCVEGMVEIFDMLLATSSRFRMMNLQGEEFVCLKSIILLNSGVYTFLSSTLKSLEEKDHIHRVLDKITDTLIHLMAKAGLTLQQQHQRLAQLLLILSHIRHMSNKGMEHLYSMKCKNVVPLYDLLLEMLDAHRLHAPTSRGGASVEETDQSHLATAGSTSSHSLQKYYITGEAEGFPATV
Protocol Details: biochemical
Description: Displacement of fluorescent labelled fluormone ES2 from human recombinant GST tagged ER alpha LBD ( 282 to 595 residues) expressed in baculovirus infected insect cells measured after 20 mins by TR-FRET Lanthascreen assay
Observed Property: IC50 (nM)

{"Molecular String": "CC(C)(F)CN1[C@@H]2CCC[C@@]1(c1c(F)cc(OCCN3CC(CF)C3)cc1F)c1[nH]c3ccccc3c1C2", "Target": "Estrogen receptor (Homo sapiens)", "Unit Abbrev": "nM", "Endpoint Result": 2}
{"Molecular String": "C[C@@H]1Cc2c([nH]c3ccccc23)[C@@](C)(c2c(F)cc(/C=C/C(=O)O)cc2F)N1CC(C)(C)F", "Target": "Estrogen receptor (Homo sapiens)", "Unit Abbrev": "nM", "Endpoint Result": 0.398}
{"Molecular String": "CC(C)(F)CN1[C@@H]2CCC[C@@]1(c1c(F)cc(/C=C/C(=O)O)cc1F)c1[nH]c3ccccc3c1C2", "Target": "Estrogen receptor (Homo sapiens)", "Unit Abbrev": "nM", "Endpoint Result": 0.794}
{"Molecular String": "C[C@@H]1Cc2c([nH]c3ccccc23)[C@@](C)(c2c(F)cc(OCCN3CC(CF)C3)cc2F)N1CC(C)(C)F", "Target": "Estrogen receptor (Homo sapiens)", "Unit Abbrev": "nM", "Endpoint Result": 1}
{"Molecular String": "CC(C)(F)CN1[C@@H]2C=CC[C@@]1(c1c(F)cc(/C=C/C(=O)O)cc1F)c1[nH]c3ccccc3c1C2", "Target": "Estrogen receptor (Homo sapiens)", "Unit Abbrev": "nM", "Endpoint Result": 0.631}

These data points were gathered from ChEMBL document CHEMBL4304838.
